target: Neuronal acetylcholine receptor subunit alpha-7 (Rattus norvegicus, UniProt Q05941)
Sequence (Q05941 whole entry): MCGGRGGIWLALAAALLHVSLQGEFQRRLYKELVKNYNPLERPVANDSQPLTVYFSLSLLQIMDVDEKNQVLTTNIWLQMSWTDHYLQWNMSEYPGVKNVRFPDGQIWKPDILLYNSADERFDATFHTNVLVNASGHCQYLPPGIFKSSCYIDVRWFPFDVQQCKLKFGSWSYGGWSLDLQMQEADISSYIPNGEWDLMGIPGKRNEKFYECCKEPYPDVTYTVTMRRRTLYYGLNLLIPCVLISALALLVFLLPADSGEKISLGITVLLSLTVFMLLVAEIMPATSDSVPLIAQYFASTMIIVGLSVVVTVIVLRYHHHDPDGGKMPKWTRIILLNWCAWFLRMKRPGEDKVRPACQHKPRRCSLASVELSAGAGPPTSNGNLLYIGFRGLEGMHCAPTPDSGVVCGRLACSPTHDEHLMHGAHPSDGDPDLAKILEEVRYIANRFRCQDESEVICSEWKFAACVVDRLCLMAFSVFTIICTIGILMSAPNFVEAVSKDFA
test: Antagonist activity at rat alpha7 nAChR expressed in xenopus oocytes assessed as inhibition of Ach- induced response at -70 mV holding potential preincubated for 5 mins followed by Ach stimulation by voltage-clamp based electrophysiological method
Format: cell-based, Oocyte
Where a SMILES comes first, the peptide text is derived from it. Bridges are numbered along the chain shown (N, C = ends). [ ]: non-standard residue; d: D form. sY = N[C@@H](Cc1ccc(OS(=O)(=O)O)cc1)C(=O)O
Provide the recorded pIC50 for the entries that follow.
One number for each entry, as −log10 of the molar value.

CC[C@H](C)[C@@H]1NC(=O)[C@H](Cc2cnc[nH]2)NC(=O)[C@@H]2CCCN2C(=O)[C@H](CC(N)=O)NC(=O)[C@H](CC(N)=O)NC(=O)[C@H](C(C)C)NC(=O)[C@H](CC(N)=O)NC(=O)[C@@H]2CSSC[C@H](NC(=O)CN)C(=O)N[C@@H](CSSC[C@@H](C(=O)O)NC1=O)C(=O)N[C@@H](CO)C(=O)N[C@@H](CC(=O)O)C(=O)N1CCC[C@H]1C(=O)N[C@@H](C)C(=O)N2 (H-GCCSDPACNVNNPHIC-OH; disulfide 2-8, 3-16); 7.00
C[C@@H]1NC(=O)[C@@H]2CSSC[C@H](NC(=O)[C@@H](N)CCC(N)=O)C(=O)N[C@@H](CSSC[C@@H](C(=O)N[C@@H](CCCNC(=N)N)C(=O)O)NC(=O)[C@H](Cc3cnc[nH]3)NC(=O)[C@H](CCC(=O)O)NC(=O)[C@H](Cc3cnc[nH]3)NC1=O)C(=O)N[C@@H](CO)C(=O)N[C@@H](CC(N)=O)C(=O)N1CCC[C@H]1C(=O)N1CCC[C@H]1C(=O)N2 (H-QCCSNPPCAHEHCR-OH; disulfide 2-8, 3-13); 5.75
C[C@@H]1NC(=O)[C@@H]2CSSC[C@H](NC(=O)[C@@H](N)CCC(N)=O)C(=O)N[C@@H](CSSC[C@@H](C(N)=O)NC(=O)[C@H](Cc3cnc[nH]3)NC(=O)[C@H](CCC(=O)O)NC(=O)[C@H](Cc3cnc[nH]3)NC1=O)C(=O)N[C@@H](CO)C(=O)N[C@@H](CC(N)=O)C(=O)N1CCC[C@H]1C(=O)N1CCC[C@H]1C(=O)N2 (H-QCCSNPPCAHEHC-NH2; disulfide 2-8, 3-13); 6.33

Would you kindly share the measured pIC50 for CSCC[C@@H]1NC(=O)[C@H](CC(N)=O)NC(=O)[C@@H]2CSSC[C@H](NC(=O)CN)C(=O)N[C@@H](CSSC[C@@H](C(=O)O)NC(=O)[C@H](Cc3ccc(OS(=O)(=O)O)cc3)NC(=O)[C@H](CC(=O)O)NC(=O)[C@@H]3CCCN3C(=O)[C@H](CC(N)=O)NC(=O)[C@H](CC(N)=O)NC1=O)C(=O)N[C@@H](CO)C(=O)N[C@@H](CC(=O)O)C(=O)N1CCC[C@H]1C(=O)N[C@@H](CCCNC(=N)N)C(=O)N2 (H-GCCSDPRCNMNNPD[sY]C-OH; disulfide 2-8, 3-16) ?
7.52
